test system: angiotensin I-converting enzyme (ACE); assay: ACE inhibitory activity assay (fluorometric ACE activity assay kit); format: biochemical; details: peptide sample 1 mg/mL; replicate 1
Can you tell me ACE inhibitory activity for the items I'm about to list?
Numbers only, in %.

> print(dat)
                            record.sequence                           assay.target  unit.abbrev  test.value
1  PMETDDQPNN [P17, synthesized peptide identified from jellyfish fraction PUR20C]  angiotensin I-converting enzyme (ACE)            %        9.82
2  DAENKENVEE [P18, synthesized peptide identified from jellyfish fraction PUR20C]  angiotensin I-converting enzyme (ACE)            %       20.13

Return ACE inhibitory activity (reported value) for this sequence: PFTMYFLL [P14, synthesized peptide identified from jellyfish fraction PUR20C] 81.67

----------
tested on: angiotensin I-converting enzyme (ACE); test: ACE inhibitory activity assay (fluorometric ACE activity assay kit); assay type: biochemical; conditions: peptide sample 1 mg/mL; replicate 2
// F strictly below 20% in ACE inhibitory activity; T otherwise

> print(dat)
                            record.sequence                           assay.target  class.assignment
1  TDSPAPSETTD [P2, synthesized peptide identified from jellyfish fraction PUR20C]  angiotensin I-converting enzyme (ACE)                 F

Proceed to the following item.
Determine whether measured ACE inhibitory activity meets or exceeds 20% for PMETDDQPNN [P17, synthesized peptide identified from jellyfish fraction PUR20C] F

----------
tested on: RAW 264.7; assay: Cytotoxicity assessment (MTT); type: cell-based, Murine; details: peptide 10 µg/mL, 72 h, replicate 1
QUANTITY_MEASURED: Cell viability (%)
Give bare numbers, in %.

> print(dat)
                            record.sequence  quantity.measured  unit.abbrev  test.value
1  EIDKLPPESRP [P7, synthesized peptide identified from jellyfish fraction PUR20C]     Cell viability            %       81.72
2  NQKAMQELNE [P1, synthesized peptide identified from jellyfish fraction PUR20C]     Cell viability            %       88.04
3  HSVLTASYRN [P5, synthesized peptide identified from jellyfish fraction PUR20C]     Cell viability            %       92.44
4  GKNCGETVWE [P9, synthesized peptide identified from jellyfish fraction PUR20C]     Cell viability            %       87.34
5  RARVVPMY [P6, synthesized peptide identified from jellyfish fraction PUR20C]     Cell viability            %       92.97

Below is a list of sequences. For each, state its recorded Cell viability.
1. LGAEGRSP [P13, synthesized peptide identified from jellyfish fraction PUR20C]
2. MVVACVLPEA [P16, synthesized peptide identified from jellyfish fraction PUR20C]
3. NFTVLCDSLE [P10, synthesized peptide identified from jellyfish fraction PUR20C]
4. EIILIPMF [P3, synthesized peptide identified from jellyfish fraction PUR20C]
5. KFNEVVYFL [P15, synthesized peptide identified from jellyfish fraction PUR20C]
6. DAENKENVEE [P18, synthesized peptide identified from jellyfish fraction PUR20C]
7. LNIPKPKLNLL [P11, synthesized peptide identified from jellyfish fraction PUR20C]

[81.72, 81.01, 85.41, 75.57, 87.87, 86.29, 84.53]

List Cell viability for every entry below, keeping the order given.
1. LMFMAVAFF [P12, synthesized peptide identified from jellyfish fraction PUR20C]
2. EQIYPMGEGDEL [P4, synthesized peptide identified from jellyfish fraction PUR20C]
3. RPLAKIIP [P8, synthesized peptide identified from jellyfish fraction PUR20C]
4. TDSPAPSETTD [P2, synthesized peptide identified from jellyfish fraction PUR20C]
5. PFTMYFLL [P14, synthesized peptide identified from jellyfish fraction PUR20C]

1. 76.97
2. 83.12
3. 84.35
4. 83.12
5. 87.69

Identify measured Cell viability corresponding to PMETDDQPNN [P17, synthesized peptide identified from jellyfish fraction PUR20C] 83.47

Values compiled from paper PMC11813147.
